System: glycogen synthase kinase-3 (GSK3A per assay name; protocol says GSK3B)
Experiment: GSK3 binders on small-molecule microarrays, primary screen, biochemical, small-molecule microarray, 635 nm fluorescence, GSK3A (AID 1103); note: the record names both GSK3A and GSK3B
Details: small-molecule microarray binding, fluorescence 635 nm; higher = more signal
Binary call on composite z-score: Condition met from -0.3 upward, Condition not met beneath that.

The examples below pair each entry with its known result.
>  <compound>
CC(C)N1CC=CC23O[C@@H]4C=CCOC(=O)[C@@H]4[C@H]2C(=O)N(CCCO)[C@@H]3C1=O (stereo not given in full)

>  <system-tested>
glycogen synthase kinase-3 (GSK3A per assay name; protocol says GSK3B)

>  <group>
Condition met

$$$$
>  <compound>
CC(C)OC(=O)C=C1C[C@@H](c2ccc(C(F)(F)F)cc2)O[C@@H](c2ccc(C(F)(F)F)cc2)O1

>  <system-tested>
glycogen synthase kinase-3 (GSK3A per assay name; protocol says GSK3B)

>  <group>
Condition met

$$$$
>  <compound>
O=C1C2C=CC(C(O)c3ccc(F)cc3)N(n3cnnc3)C2C(=O)N1Cc1ccccc1 (stereo not given)

>  <system-tested>
glycogen synthase kinase-3 (GSK3A per assay name; protocol says GSK3B)

>  <group>
Condition not met

$$$$

--- query ---
Tell me whether composite z-score is at least -0.3 here: C=CCC(OC(C)=O)[C@@H]1[C@@H](N(Cc2ccc(-c3cccc(C(F)(F)F)c3)o2)C(=O)c2ccc(-c3ccccc3)cc2)c2cc(OCCCO)ccc2N1C(=O)c1ccc2ccccc2n1 (stereo not given in full)
Condition not met
